Recorded values, source PubChem BioAssay AID1209.

Target: Mannose-6-phosphate isomerase (Homo sapiens)
Test: inhibitors of human PMI, primary screen, biochemical, fluorescence intensity, coupled assay (AID 1209);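 note: plate controls were DMSO vehicle for no effect and wells lacking substrate for full effect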
Details: purified PMI enzyme, at 20 µM, active compounds read high
Hit rate of the full screen: of about 190,000 compounds, about 810 (0.43%) were called active. The list comes from a sample in which actives are over-represented; it also holds close analogues and randomly drawn compounds.
Measured attribute: inhibition (%)
Express it in %; write the number only.

Task: Specify reported inhibition for the compound shown: CCN(CC#CCC(O)(c1ccccc1)C1CCCC1)C(C)C (stereo not drawn)
Result: 7.4

Task: Supply recorded inhibition for CCOC(=O)c1c(C2COc3ccccc3O2)csc1N (stereo not drawn) here.
Result: 19.8

Task: Using the record for Clc1ccccc1-c1nnc2sc(C3COc4ccccc4O3)nn12 (stereo not drawn) , state its measured inhibition.
Result: 50

Task: Report measured inhibition; entry is "COC(=O)C1=C(NC(=O)c2ccccc2C)CCS1"
Result: -17.4

Task: Give the measured inhibition for COc1ccccc1-c1nn2c(C3COc4ccccc4O3)nnc2s1 (stereo not drawn)
Result: 57.6

Task: Provide one value: measured inhibition of "COc1ccc(NC(=O)CCCn2c(=O)c3sccc3n(Cc3ccccc3C)c2=O)cc1"
Result: 6.6

Task: Answer with reported inhibition of "Cc1c([N+](=O)[O-])ccc(S(=O)(=O)N2CCC(C(N)=O)CC2)c1C"
Result: 10.6

Task: Tell us which inhibition value is on record for Fc1ccc(-c2nnc3sc(C4COc5ccccc5O4)nn23)cc1 (stereo not drawn)
Result: 0.9

Task: Report measured inhibition; entry is "COc1ccc(/C=C/C(=O)OCC(=O)Nc2c(C)cccc2C)cc1"
Result: -7.6

Task: Tell me inhibition reported for "O=C1CCCN2N=C(SCC(=O)Nc3nccs3)SC2=N1"
Result: -3.6

Task: Using known records, supply inhibition for "Cc1cc(C)c(C(=O)COC(=O)Cn2cnnn2)cc1C"
Result: -10.7

Task: Assign inhibition to the following record: Fc1ccc(-c2nn3c(C4COc5ccccc5O4)nnc3s2)cc1 (stereo not drawn)
Result: 7.6

Task: # return recorded inhibition for entry "Clc1cccc(-c2nnc3sc(-c4ccc5c(c4)OCO5)nn23)c1"
Result: 9.8

Task: Given the compound "COC(=O)CN(c1ccc(Cl)cc1C)S(C)(=O)=O" , write its reported inhibition.
Result: 1.2

Task: Supply inhibition value. Item: "CCOc1ccc(S(=O)(=O)NCc2ccccc2)cc1C(N)=O"
Result: 8.4

Task: Answer with reported inhibition of COc1ccc(NC(=O)N2CCCC2C(=O)Nc2ccc(C)cc2)cc1 (stereo not drawn)
Result: 1.2

Task: Answer with the recorded inhibition for the compound listed here: "CCN(CC)S(=O)(=O)c1ccc(OC)c(NC(=O)c2cc3c(=O)n4ccccc4nc3s2)c1"
Result: 10
